# Tested Target: GCGR (Homo sapiens, UniProt P47871)
# Sequence (P47871 26-477, species assumed): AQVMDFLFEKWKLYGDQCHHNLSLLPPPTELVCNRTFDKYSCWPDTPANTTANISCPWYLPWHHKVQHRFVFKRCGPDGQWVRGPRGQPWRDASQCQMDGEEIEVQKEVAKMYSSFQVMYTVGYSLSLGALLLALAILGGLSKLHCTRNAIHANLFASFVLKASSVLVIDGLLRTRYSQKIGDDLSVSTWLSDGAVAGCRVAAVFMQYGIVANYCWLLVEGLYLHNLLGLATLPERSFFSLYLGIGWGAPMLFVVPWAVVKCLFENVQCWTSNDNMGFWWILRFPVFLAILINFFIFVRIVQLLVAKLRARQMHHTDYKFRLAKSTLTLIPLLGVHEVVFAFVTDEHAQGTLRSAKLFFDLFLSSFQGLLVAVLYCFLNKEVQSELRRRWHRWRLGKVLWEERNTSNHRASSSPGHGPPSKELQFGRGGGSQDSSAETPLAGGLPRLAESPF
# Assay Procedure: I125-glucagon binding assay (competition, GCGR membrane fractions)
# Set-up: expressed in transfected cells; host or cells: CHO-K1
# Experimental Setup: competition with I125-glucagon 0.0625 nM; membrane fractions from GCGR overexpressed CHO-K1 cells
# Description: I^125-Glucagon Binding Assay The binding affinity of each compound was evaluated by a competition assay with I^125-glucagon. GCGR membrane fractions were obtained from GCGR overexpressed CHO-K1 cells as a stock of 1 mg/ml concentration. […] The residual isotope was detected by Hidex CHAMELEON V micro-beta counter and the IC50 value of each compound binding to GCGR was calculated with non-linear regression.
Endpoint: IC50 (µM)

I = CCC(C)[C@H](Nc1ccc(C(=O)NCCC(=O)O)cc1)c1ccc(-c2nnc(-c3ccccc3)o2)cc1 (stereo partly shown)
II = CCOC(=O)CCNC(=O)c1ccc(NC(c2ccc(-c3noc(-c4ccc(F)cc4)n3)cc2)C(C)C)cc1 (stereo not shown)
Prompt: Could you point out whether the larger IC50 belongs to I or to II ? Returns: label corresponding to the selected item.
Completion: II
(II: 2.68 µM, I: 0.092 µM)

----------
# Tested Target: GCGR (Homo sapiens, UniProt P47871)
# Assay Procedure: I125-glucagon binding assay (competition, GCGR membrane fractions)
# Parameters: expressed in transfected cells; host or cells: CHO-K1
# Experimental Setup: competition with I125-glucagon 0.0625 nM; membrane fractions from GCGR overexpressed CHO-K1 cells
pIC50: −log10 of the molar value.
Endpoint: pIC50

Example cases with answers are listed next.
CCC(C)C(Nc1ccc(C(=O)NCCC(=O)O)cc1)c1ccc(-c2nnc(C(F)(F)F)o2)cc1 (stereo not shown) [Compound 1-32]
6.05
CCOC(=O)CCNC(=O)c1ccc(C(Nc2ccc(-c3nnc(-c4ccccc4)o3)cc2)C(C)C)cc1 (stereo not shown) [Compound 3-4]
5.55
CC(C)CC(Nc1ccc(C(=O)NCCC(=O)O)cc1)c1ccc(-c2noc(-c3cccs3)n2)cc1 (stereo not shown) [Compound 2-14]
6.56

P = CC(C)C(Nc1ccc(C(=O)NCCC(=O)O)cc1)c1ccc(-c2nnc(C(C)(C)C)o2)cc1 (stereo not shown) [Compound 1-24]
Q = CCOC(=O)CCNC(=O)c1ccc(N[C@H](c2ccc(-c3noc(C(F)(F)F)n3)cc2)C(C)CC)cc1 (stereo partly shown) [Compound 2-29]
R = CC(C)C(Nc1ccc(C(=O)NCCC(=O)O)cc1)c1ccc(-c2nnc(-c3ccccc3)o2)cc1 (stereo not shown) [Compound 1-1]
Prompt: Number of molecules to sort: 3. Sort criterion: pIC50, ascending. Form entry: labels listed in requested order.
Completion: Q, P, R
(Q: 5.74, P: 6.50, R: 7.57)

----------
# Tested Target: glucagon receptor (GCGR) (Homo sapiens, UniProt P47871)
# Construct: expressed in transfected cells; host or cells: CHO-K1
# Sequence (P47871 26-477, species assumed): as above
# Assay Procedure: Glucagon cAMP inhibition assay (Cisbio cAMP Dynamic 2 HTRF)
# Format: cell-based
# Experimental Setup: GCGR overexpressed CHO-K1 cells or human primary hepatocytes (not specified); glucagon at EC50
pIC50: −log10 of the molar value.
Endpoint: pIC50

CCC(C)[C@@H](Nc1ccc(C(=O)NCCC(=O)O)cc1)c1ccc(-c2nc3ccccc3o2)cc1 (stereo partly shown) [Compound 4-22]
6.05

1 = CCOC(=O)CCNC(=O)c1ccc(C(Oc2ccc(-c3nc4ccccc4o3)cc2)C(C)C)cc1 (stereo not shown) [Compound 7-1]
2 = CCOC(=O)CCNC(=O)c1ccc(NC(c2ccc(-c3nnc(-c4ccccc4)o3)cc2)C(C)CC)cc1 (stereo not shown) [Compound 1-10]
Prompt: Would you mind telling me which has the lower recorded pIC50 between 1 and 2 ? Returns: label corresponding to the selected item.
Completion: 1
(1: 6.31, 2: 7.60)

----------
Items are presented alongside their recorded IC50.
# Tested Target: UniProt:P47871
# Assay Procedure: I125-glucagon binding assay (competition, GCGR membrane fractions)
# Design: expressed in transfected cells; host or cells: CHO-K1
# Experimental Setup: competition with I125-glucagon 0.0625 nM; membrane fractions from GCGR overexpressed CHO-K1 cells

CCCC[C@@H](Nc1ccc(C(=O)NCCC(=O)OCC)cc1)c1ccc(-c2nnc(-c3ccccn3)o2)cc1
> 30 µM

Prompt: Please report IC50 for the following compound: CCOC(=O)CCNC(=O)c1ccc(N[C@H](CC(C)C)c2ccc(-c3nnc(-c4ccccc4)o3)cc2)cc1
Completion: > 30 µM

Prompt: Please report IC50 for the following compound: CCOC(=O)CCNC(=O)c1ccc(N[C@@H](c2ccc(-c3nnc(C(F)(F)F)o3)cc2)C(C)C)cc1
Completion: > 30 µM

----------
# Tested Target: GCGR (Homo sapiens)
# Assay Procedure: I125-glucagon binding assay (competition, GCGR membrane fractions)
# Design: expressed in transfected cells; host or cells: CHO-K1
# Experimental Setup: competition with I125-glucagon 0.0625 nM; membrane fractions from GCGR overexpressed CHO-K1 cells
Endpoint: IC50 (nM)

Example cases with answers are listed next.
CCCC[C@H](Nc1ccc(C(=O)NCCC(=O)O)cc1)c1ccc(-c2nnc(C(F)(F)F)o2)cc1
351
CC(C)C(Oc1ccc(-c2nc3ccccc3s2)cc1)c1ccc(C(=O)NCCC(=O)O)cc1 (stereo not shown)
208
CC(C)C[C@H](Nc1ccc(C(=O)NCCC(=O)O)cc1)c1ccc(-c2nnc(-c3ccccc3)o2)cc1
201
CC(C)[C@H](Nc1ccc(C(=O)NCCC(=O)O)cc1)c1ccc(-c2nc(-c3ccccc3)no2)cc1
34.1
CC(C)C[C@@H](Nc1ccc(C(=O)NCCC(=O)O)cc1)c1ccc(-c2nc3ccccc3o2)cc1
112
CC(C)[C@H](Nc1ccc(-c2nnc(-c3ccccc3)o2)cc1)c1ccc(C(=O)NCCC(=O)O)cc1
957
CC(C)[C@@H](Nc1ccc(C(=O)NCCC(=O)O)cc1)c1ccc(-c2nc3ccccc3o2)cc1
372

a = O=C(O)CCNC(=O)c1ccc(N[C@H](c2ccc(-c3nc4ccccc4o3)cc2)C2CCCC2)cc1
b = CCCC[C@@H](Nc1ccc(C(=O)NCCC(=O)OCC)cc1)c1ccc(-c2nc3ccccc3o2)cc1
Prompt: Would you mind telling me which has the lower recorded IC50 between a and b ? Returns: label corresponding to the selected item.
Completion: a

----------
# Tested Target: UniProt P47871
# Assay Procedure: Glucagon cAMP inhibition assay (Cisbio cAMP Dynamic 2 HTRF)
# Experimental Setup: GCGR overexpressed CHO-K1 cells or human primary hepatocytes (not specified); glucagon at EC50
Endpoint: IC50 (nM)

CCOC(=O)CCNC(=O)c1ccc(N[C@H](c2ccc(-c3nc(-c4ccccc4)no3)cc2)C(C)C)cc1
71.4

P = CCOC(=O)CCNC(=O)c1ccc([C@H](Nc2ccc(-c3nnc(-c4ccccc4)o3)cc2)C(C)C)cc1
Q = CCCCC(Nc1ccc(C(=O)NCCC(=O)O)cc1)c1ccc(-c2nnc(-c3ccccn3)o2)cc1 (centres unmarked)
R = CCCC[C@H](Nc1ccc(C(=O)NCCC(=O)OCC)cc1)c1ccc(-c2nc3ccccc3o2)cc1
S = CCOC(=O)CCNC(=O)c1ccc(NC(c2ccc(-c3nnc(-c4ccc(F)cc4)o3)cc2)C(C)CC)cc1 (centres unmarked)
Prompt: Number of compounds to sort: 4. Sort criterion: IC50, ascending. Form entry: labels listed in requested order.
Completion: R, S, P, Q
(R: 43 nM, S: 114 nM, P: 207 nM, Q: 15700 nM)

----------
# Tested Target: glucagon receptor (GCGR) (Homo sapiens, UniProt P47871)
# Assay Procedure: Glucagon cAMP inhibition assay (Cisbio cAMP Dynamic 2 HTRF)
# Experimental Setup: GCGR overexpressed CHO-K1 cells or human primary hepatocytes (not specified); glucagon at EC50
# Description: Glucagon eAMP Inhibition Assay Downstream secondary messenger eAMP induced by glucagon was detected by Cisbio cAMP Dynamic 2 kit. Testing compounds were each prepared as a dimethyl sulfoxide (DMSO) solution at the concentration of 10 mM. […] After incubation, lysis buffer contain cAMP antibody and fluorescence acceptor were added into each well for additional 60 minutes incubation. […]
Endpoint: IC50 (nM)

P = COc1ccc(-c2nnc(-c3ccc(C(Nc4ccc(C(=O)NCCC(=O)O)cc4)C(C)C)cc3)o2)cc1 (stereo not shown) [Compound 1-26]
Q = CCOC(=O)CCNC(=O)c1ccc(N[C@H](CC(C)C)c2ccc(-c3nnc(-c4ccccc4)o3)cc2)cc1 [Compound 1-60]
R = CCCCC(Nc1ccc(C(=O)NCCC(=O)OCC)cc1)c1ccc(-c2nnc(C(C)(C)C)o2)cc1 (stereo not shown) [Compound 1-19]
S = CC(C)C(Oc1ccc(-c2nc3ccccc3o2)cc1)c1ccc(C(=O)NCCC(=O)O)cc1 (stereo not shown) [Compound 7-2]
Prompt: Sort low-to-high on IC50, please. Form entry: labels listed in requested order.
Completion: Q, R, S, P

----------
Items are presented alongside their recorded pIC50.
# Tested Target: GCGR (Homo sapiens, UniProt P47871)
# Assay Procedure: I125-glucagon binding assay (competition, GCGR membrane fractions)
# Design: expressed in transfected cells; host or cells: CHO-K1
# Experimental Setup: competition with I125-glucagon 0.0625 nM; membrane fractions from GCGR overexpressed CHO-K1 cells
pIC50: −log10 of the molar value.

Example cases with answers are listed next.
CCOC(=O)CCNC(=O)c1ccc(C(Nc2ccc(-c3nnc(-c4ccc(F)cc4)o3)cc2)C(C)C)cc1 (stereo not shown)
< 4.52
CCOC(=O)CCNC(=O)c1ccc([C@H](Nc2ccc(-c3nnc(-c4ccccc4)o3)cc2)C(C)C)cc1
< 4.52
CCCC[C@H](Nc1ccc(C(=O)NCCC(=O)OCC)cc1)c1ccc(-c2noc(C(F)(F)F)n2)cc1
< 4.52

Prompt: Please report pIC50 for the following compound: CCOC(=O)CCNC(=O)c1ccc(C(Oc2ccc(-c3nc4ccccc4o3)cc2)C(C)C)cc1 (stereo not shown)
Completion: < 4.52
